Test system: TIE2
Construct: gene TEK
Conditions: concentration: 1 μM, replicates: in singlicate; n = 1;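 also: KINOMEscan kinase panel screen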
quantity kind: %Inh (%)
# number only, unit % dropped from output

Memo: CN(C)CCN(C)C(=O)c1cc(-c2ccncc2)c(-c2ccc(Cl)c(O)c2)o1.Cl.Cl , reported %Inh: 0

Memo: COc1ccc(CNC(=O)NC2CCN(c3ccnc(Nc4cc(OC)c(OC)c(OC)c4)n3)C2)cc1 (centres unmarked) , reported %Inh: 0

Memo: COC(=O)c1c(-c2ccccc2)c2cc(OC)ccc2c(=O)n1Cc1ccccc1 , reported %Inh: 0

Memo: Cc1ccccc1-n1cnc2c(N)ncnc21 , reported %Inh: 0

Memo: O=C(Nc1n[nH]c2nc(-c3nccs3)c(Br)cc12)C1CC1 , reported %Inh: 8

---

Tested on: MAP4K2
Settings: concentration: 1 μM, replicates: in singlicate; n = 1
Listed here are compounds together with their documented %Inh.
# number only, unit % dropped from output

Use these answered entries as a reference point.
INSERT INTO results (compound, quantity_kind, reported) VALUES
  ('Cc1c(Cn2ccn3c(=O)cc(N4CCOCC4)nc23)cccc1C(F)(F)F', '%Inh', 1),
  ('Cc1cccc(-c2nc(Nc3cccc(C(N)=O)c3)c3ccccc3n2)n1', '%Inh', 0),
  ('CC(=O)Nc1nc2cnc(Nc3cc(NC(=O)c4cccc(CCC#N)c4)ccc3C)nc2s1', '%Inh', 0),
  ('Cc1cccc(-c2nc(Nc3ccc4[nH]ncc4c3)c3ccccc3n2)n1', '%Inh', 39),
  ('COc1cccc(-c2cc(-c3c[nH]nc3-c3ccccn3)ccn2)c1', '%Inh', 8);

Memo: Cc1ccc(-c2cc(-c3c[nH]nc3-c3ccccn3)ccn2)cc1 , reported %Inh: 0

Memo: Cc1cccc(-c2cc(Nc3ccncc3)c3ccccc3n2)n1 , reported %Inh: 0

---

Test system: EPHB1
Details: concentration: 1 μM, replicates: in singlicate; n = 1
quantity kind: %Inh (%)
# number only, unit % dropped from output

Use these answered entries as a reference point.
INSERT INTO assay_data (compound, quantity_kind, reported) VALUES
  ('CC1=C(C(=O)Nc2cc3cn[nH]c3cc2F)C(c2ccc(C(F)(F)F)cc2)CC(=O)N1 (stereo not drawn)', '%Inh', 3),
  ('Cc1csc(-c2nc(Nc3ccncc3)c3ccccc3n2)n1', '%Inh', 7);

Form field, %Inh with EPHB1, item COc1cccc(-c2cc(-c3c[nH]nc3-c3ccccn3)ccn2)c1 : 7

---

Tested on: JAK3(JH1domain-catalytic)
Settings: concentration: 1 μM, replicates: in singlicate; n = 1
quantity kind: %Inh (%)
# number only, unit % dropped from output

Use these answered entries as a reference point.
INSERT INTO measurements (compound, reported) VALUES
  ('Cc1ccc(-c2cc(-c3c[nH]nc3-c3ccccn3)ccn2)cc1', 0),
  ('COc1ccc(CNC(=O)NC2CCN(c3ccnc(Nc4cc(OC)c(OC)c(OC)c4)n3)C2)cc1 (centres unmarked)', 0),
  ('COc1ccc2nc(-c3cccc(C)n3)nc(Nc3ccncc3)c2c1', 0),
  ('CC(=O)Nc1nc2cnc(Nc3cc(NC(=O)c4cccc(CCC#N)c4)ccc3C)nc2s1', 0),
  ('Cc1nnc(-c2ccc3occ(-c4ccc(S(C)=O)cc4)c3c2)[nH]1 (centres unmarked)', 22);

Memo: NC(=O)c1nnc2ccccc2c1N , reported %Inh: 65

Memo: COc1cc2nccc(Nc3ccc(NC(=O)c4ccc(C)cc4)c(O)c3)c2cc1OC.Cl , reported %Inh: 0

Memo: Clc1cc(Cl)cc(Nc2ccnc(Nc3cc(Cl)cc(Cl)c3)n2)c1 , reported %Inh: 0

Memo: Cc1cccc(-c2nc(Nc3cccc(C(N)=O)c3)c3ccccc3n2)n1 , reported %Inh: 15

Memo: COc1ccc(C2=C(Nc3cccc(C(=O)O)c3)C(=O)NC2=O)cc1 , reported %Inh: 0

Memo: Cn1ccc2ncnc(Oc3ccc(Nc4nc5ccccc5[nH]4)cc3)c21 , reported %Inh: 0

Memo: Fc1cccc(COc2nnc(-c3ccc4c(c3)CCO4)o2)c1 , reported %Inh: 5
